Recorded inhibition at 1 µM values for a group of compounds are listed next.
# Tested Target: CYP3A4 (Homo sapiens, UniProt P08684)
# Sequence (P08684 whole entry): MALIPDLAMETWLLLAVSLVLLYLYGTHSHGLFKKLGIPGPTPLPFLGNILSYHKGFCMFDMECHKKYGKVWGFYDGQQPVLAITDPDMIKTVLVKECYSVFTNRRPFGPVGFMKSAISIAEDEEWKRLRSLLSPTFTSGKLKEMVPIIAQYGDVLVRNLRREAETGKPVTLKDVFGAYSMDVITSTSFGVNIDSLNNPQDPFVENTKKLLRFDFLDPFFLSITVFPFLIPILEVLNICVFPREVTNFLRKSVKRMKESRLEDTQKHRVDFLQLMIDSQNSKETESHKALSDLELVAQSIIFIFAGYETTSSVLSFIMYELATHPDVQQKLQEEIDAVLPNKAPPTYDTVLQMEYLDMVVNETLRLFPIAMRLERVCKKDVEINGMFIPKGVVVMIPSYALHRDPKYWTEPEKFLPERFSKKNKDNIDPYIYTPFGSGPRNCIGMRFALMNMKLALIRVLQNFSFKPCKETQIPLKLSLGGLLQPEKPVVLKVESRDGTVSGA
# Assay Details: Inhibition of CYP3A4 at 1 uM
# Type: ADME
Note: unit % is implicit; provide only the numeric part.

*Q* Can you look up the measured inhibition at 1 µM of `c1cc([C@H]2CC[C@H](N3CCCCC3)CC2)ccc1OCCCN1CCCCC1` for me?
*A* 5.2

###

# IC50 measurements, system: Cytochrome P450 2C9 (Homo sapiens)
# Sequence (P11712 whole entry): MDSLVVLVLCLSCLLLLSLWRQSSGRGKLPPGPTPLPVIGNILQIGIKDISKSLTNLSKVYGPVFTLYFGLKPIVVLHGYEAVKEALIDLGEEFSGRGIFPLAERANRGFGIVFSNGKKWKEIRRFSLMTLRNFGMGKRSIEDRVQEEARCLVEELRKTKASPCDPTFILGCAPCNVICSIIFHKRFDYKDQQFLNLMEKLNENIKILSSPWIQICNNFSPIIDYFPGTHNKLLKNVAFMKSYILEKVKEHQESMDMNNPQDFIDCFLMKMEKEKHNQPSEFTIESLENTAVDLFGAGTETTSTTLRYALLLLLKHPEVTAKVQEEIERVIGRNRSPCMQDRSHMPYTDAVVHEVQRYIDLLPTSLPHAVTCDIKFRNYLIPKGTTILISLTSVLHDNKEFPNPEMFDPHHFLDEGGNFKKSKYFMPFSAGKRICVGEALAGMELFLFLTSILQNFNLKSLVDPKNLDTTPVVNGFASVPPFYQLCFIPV
Note: unit µM is implicit; provide only the numeric part.

Molecular String	IC50, µM
c1cc([C@H]2CC[C@H](N3CCOCC3)CC2)ccc1OCCCN1CCCCC1	44
c1cc([C@H]2CC[C@@H](N3CCCC3)CC2)ccc1OCCCN1CCCCC1	22.3

Below: the item to evaluate.
*Q* Can you look up the measured IC50 of `c1cc([C@H]2CC[C@H](N3CCCC3)CC2)ccc1OCCCN1CCCCC1` for me?
*A* 15.3

###

Recorded inhibition at 1 µM values for a group of molecules are listed next.
# Tested Target: CYP3A4 (Homo sapiens)
# Assay Details: Inhibition of CYP3A4 at 1 uM
# Assay type: ADME
Note: unit % is implicit; provide only the numeric part.

Molecular String	Data Value
CCCCN[C@H]1CC[C@H](c2ccc(OCCCN3CCCCC3)cc2)CC1	26.6
OC1CCN([C@H]2CC[C@H](c3ccc(OCCCN4CCCCC4)cc3)CC2)CC1	3.3
CCCCN[C@H]1CC[C@@H](c2ccc(OCCCN3CCCCC3)cc2)CC1	25.4

Below: the item to evaluate.
*Q* Can you look up the measured inhibition at 1 µM of `c1ccc(CN[C@H]2CC[C@H](c3ccc(OCCCN4CCCCC4)cc3)CC2)cc1` for me?
*A* 39.9
